Experiment: CHOP2 Reporter Counterscreen Assay for Inhibitors of Ubiquitin-specific Protease USP2a;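 also: activated enterokinase alone at 50 pM in a cell-free format rather than USP2a or CHOP2; nearly all actives have a fitted effect of over 55% in size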
Conditions: purified enterokinase, fluorogenic substrate, 485/531 nm; series mostly up to 38.3 µM
Results filed as inconclusive are left out. Calls of active or inactive are those of the source. Calls follow the shape of the dose curve; as a rule, active = well fitted inhibition curve with a large enough effect; inconclusive = small, poorly fitted or top-dose-only effect; inactive = flat fitted curve, though single readings scatter.
Your response should consist of one outcome taken from yes (1) (active), no (0) (inactive)

Write down the call the test reported for this compound. Item: `CCOC(=O)c1c(C)c(C(=O)O)n(C)c1C`
no (0)

// query: Cc1ccc(C2=[N+]([O-])C(C)N(O)C2(C)C)o1 (stereo not drawn)
no (0)

Same again, this time with CCC(C)(C(=O)NC1CCCCC1)N(C(=O)C1CCC(=O)N1)c1ccccc1 (stereo not drawn)
no (0)

Likewise for `COc1cc(C)ccc1OCCOc1cc(C)ccc1Cl` ?
no (0)

Entry COc1ccc(NC(=O)C2CC(=O)OC2c2ccccc2)cc1 (stereo not drawn) please
no (0)

// query: O=S(=O)(c1ccccc1)N(CC1CO1)c1cc(Cl)ccc1Cl (stereo not drawn)
no (0)

What do you have for `Nn1c(Nc2ccccc2)nc2ccccc2c1=O` ?
no (0)

Item: `C/C(CC(=O)N1CCCC1)=N\NC(=O)c1cc2ccccc2cc1O`
no (0)

And what about the compound `CCOc1ccc(C(=O)c2ccc(OCC)c(N)c2)cc1N` ?
no (0)

Could you do the same for `Cc1cc(-c2csc(NCc3ccccc3)n2)c(C)n1C` , please?
yes (1)

Follow-up entry: `O=C(Nc1ccc2c(c1)OCO2)NC1(C(F)(F)F)Oc2ccccc2O1`
no (0)

And the next one, `CCOC(=O)CN1C(=O)S/C(=C/c2ccc(O)c([N+](=O)[O-])c2)C1=O` ?
no (0)

Next: `O=c1oc2ccccc2n1Cn1c(=O)oc2ccccc21`
no (0)
